assay: Human HepG2 cell viability assay in 384 well format; assay type: toxicity, cell-based; design: dose 125 nL, time 70.5 hour; concentration not given beside the values; conditions: HepG2 cells, read-out: Inhibition
PROPERTY LABEL: cytotoxicity at 70.5 h (%)

Cc1nc(CN(C)C2CCN(CC(=O)N(C)CCC#N)C2)no1 (centres undefined)
0.0577
COC(C)Cc1nc(-c2cnn3c(C)cc(C)nc23)no1 (centres undefined)
-97.5
Cn1c(C2CC2)nc2c1CCN(CCOc1ccccc1C#N)C2
23.9
COc1cc(CN2C[C@H](OC)[C@]3(CCCO3)C2)ccc1F
19.1
COC(=O)CCC(=O)NCc1cccnc1N1CCc2ccccc2C1
3.31
CSc1cc2c(cc1NC(=O)NCC(=O)N(C)C)OCCO2
0.952
CN1CC(c2cc(O)nc(NCc3ccc(Cl)cc3)n2)CC1=O (centres undefined)
-5.19
CN(C)c1cccc(C(=O)Nc2cnn(CC(N)=O)c2)c1
-16.4
Cc1csc(C2(NCc3nc(-c4ccco4)oc3C)CCCC2)n1
22.8
FC(F)(F)c1ccc(-c2c[nH]c([C@@H]3COCCN3)n2)cc1
-16
CCOCc1nc2c(c(N(C)Cc3nonc3C)n1)CCNCC2
-11.4
CCc1nnc(CN2CCCCC2Cn2nc(C)nc2C)o1 (centres undefined)
-5.83
Cc1oc(C(C)C)cc1C(=O)N1C[C@H]2CC[C@@H]1CN(C(=O)N(C)C)C2
3.52
Cn1cc(-c2cc(C(F)(F)F)nn2CCC#N)cn1
11.5
Cc1nc(NCC2CC2)nc2c1COCC21CCNC1 (centres undefined)
5.46
Cn1cc(-c2csc(N3CCCCCC3)n2)cn1
-1.01
CC(NC(=O)N(C)Cc1ccc2c(c1)OCO2)c1nncn1C (centres undefined)
-8.56
CC(NC(=O)NCC(C)(C)O)c1ccc(-c2ccncc2)cc1 (centres undefined)
-1.45
Cc1nc(N2CCOCC2)nc2c1CCN(Cc1ccsc1)CC2
1.35
CCn1cc(CN(C)S(=O)(=O)c2cnn(C)c2)cn1
-6.45
COc1cccc(CNc2cnn(C)c(=O)c2Cl)c1
3.02
CSCC(=O)N1CCOC(c2nc(C(C)C)n[nH]2)C1 (centres undefined)
-7.67
Cc1nccn1CCCn1c(=O)cnc2ccccc21
-10.5
CCN1CCN(C2CCN(Cc3cc(C)on3)CC2)C1=O
49.1
c1cnn(Cc2nnc3n2CCCN(c2nccs2)C3)c1
12.8
Cc1nn(C)c(N2CCOCC2)c1CNC1CCc2cc(F)ccc21 (centres undefined)
-19.2
CC(C)NC(=O)CC(C)NCc1cc(Cl)ccc1F (centres undefined)
-3.06
Cc1cc2n(n1)CC(CNC1CCN(Cc3ccccn3)CC1)CN2 (centres undefined)
-6.35
O=C(CN1C(=O)CCNC1=O)N1CCC2(CCc3ccccc32)CC1
16.2
CCN(CC)C(=O)NC(C)c1ccc(Oc2cccnc2)c(F)c1 (centres undefined)
16
Cc1nn(C)c(C)c1-c1ccc(=O)n(C(C)C(=O)NC2CC2)n1 (centres undefined)
17.4
Cc1cc(CN2CCC(O)(Cn3ccc4ncccc43)CC2)c(C)s1
4.82
CC1CCCN(CCCNC(=O)Cc2csc(-c3ccoc3)n2)C1 (centres undefined)
-3.83
Cc1cc(NC(=O)CN2CCOC(Cn3nc(C)cc3C)C2)n(C)n1 (centres undefined)
-8.28
CN1CCc2[nH]nc(C(=O)N3CCC4(CCCO4)CC3)c2C1
-0.824
O=C(CN1CCOc2ccc(Cl)cc21)NCCCn1ccnc1
-5.4
COCC1CN(Cc2cc(C)on2)Cc2cn(C)nc21 (centres undefined)
3.15
COCCOCCC(=O)Nc1c(-c2ccc(F)cc2)ncn1C
17
O=C(NCc1ccccn1)c1nnn(-c2ccc(Br)cc2)n1
10.5
O=C1CC2(CCN(c3nncs3)C2)CN1c1cccc(F)c1 (centres undefined)
-3.52
O=C(c1cc2c([nH]c1=O)CCC2)N1CCCCC1c1cccc(F)c1 (centres undefined)
2.02
CNS(=O)(=O)c1cccc(C(C)NCc2ccncc2)c1 (centres undefined)
-2.51
COc1ccc(C(=O)N2CCOC3(CNCCOC3)C2)c(OC)n1 (centres undefined)
28
O=C1CC(NCc2cnc(N3CCCC3)nc2)CN1c1ccccc1 (centres undefined)
1.08
NC(=O)C1CCCN1Cc1nccn1CC(F)(F)F (centres undefined)
10.6
CCc1nnsc1C(=O)NCC1CN(CC(C)C)CCO1 (centres undefined)
22.5
Cc1nc(O)cc(CNC(=O)CC[C@@H]2CCCN3CCCC[C@H]23)n1
-9.94
O=c1[nH]c(-c2ccc(F)cc2)nc2c1CCNC2
-0.466
O=C(CN1CCC2(CCCCC2)C1)NCC(F)(F)F
-9.38
